Data origin: paper PMC7160673

# System: 53BP1 TTD
# METHOD DESCRIPTION: Histone peptide microarray, 53BP1 TTD
# Assay type: binding
# CONDITION PARAMETERS: 53BP1 TTD hits, average signal per peptide
Everything with Avg Signal lower than 0.2 is Not met; everything else, including exactly 0.2, is Met.

SUBSTANCE | CAT
IAQDFKTDLRF-Peg-K(Biot)-NH2 [H3.1.1(74-84)] | Not met
Ac-IAQDFK(Me2)TDLRF-Peg-K(Biot)-NH2 [Peptide H3.1K79me2] | Met
ARTK(Ac)QTARK(Ac)STGGK(Ac)APRKQL-K(Biot)-NH2 [H3.1K4acK9acK14ac] | Not met
Ac-APRKQLATKAARK(Me2)SAPSTGG-Peg-Biot [Peptide H3.3K27me2] | Met
ARTKQTARKpSTGGKAPRKQL-K(Biot)-NH2 [Peptide H3.1S10p] | Not met

Quick check: does ARTKQTAR(Me2a)K(Me3)STGGKAPRKQL-K(Biot)-NH2 [H3.1R8me2aK9me3] have Avg Signal greater than or equal to 0.2?
Met

Quick check: does ARTK(Me3)QTARK(Ac)STGGKAPRKQL-K(Biot)-NH2 [H3.1K4me3K9ac] have Avg Signal greater than or equal to 0.2?
Met

Quick check: does ARTKQTARK(Me2)pSTGGKAPRKQL-K(Biot)-NH2 [H3.1K9me2S10p] have Avg Signal greater than or equal to 0.2?
Met

Quick check: does ARTKQTARK(Me)pSTGGKAPRKQL-K(Biot)-NH2 [H3.1K9me1S10p] have Avg Signal greater than or equal to 0.2?
Not met

Quick check: does Ac-APRK(Me3)QLATKAARKSAPSTGGVK(Me3)KPHRY-GG-K(Biot)-NH2 [H3.3K18me3K36me3] have Avg Signal greater than or equal to 0.2?
Not met

* * *

# System: ABClonal #A2355, anti-H3K4me1
# METHOD DESCRIPTION: Histone peptide microarray, ABclonal A2355;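 note: normalized to the highest peptide average per subarray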
# Assay type: binding
# CONDITION PARAMETERS: Abclonal A2355 (anti-H3K4me1) hits
Recorded measurements of Avg Signal, one per entry
Answer with the value's number alone.

Note down Avg Signal recorded for AR(Me2a)TKQTARKSTGGKAPRKQL-K(Biot)-NH2 [Peptide H3.1R2me2a]
0.0139

Note down Avg Signal recorded for ACitTK(Me2)QTARKSTGGKAPRKQL-K(Biot)-NH2 [H3.1Cit2K4me2]
0.3053

* * *

# System: 53BP1 TTD
# METHOD DESCRIPTION: Histone peptide microarray, 53BP1 TTD
# Assay type: binding
# CONDITION PARAMETERS: 53BP1 TTD hits, average signal per peptide
Recorded measurements of Avg Signal, one per entry
Answer with the value's number alone.

Take a look at these entries with their results.
SUBSTANCE | REPORTED MEASUREMENT
AR(Me2a)TK(Me2)QTARKSTGGKAPRKQL-K(Biot)-NH2 [H3.1R2me2aK4me2] | 0.2614
Ac-pSGR(Me2a)GK(Ac)QGGKARAKAKTR-Peg-Biot [H2AS1pR3me2aK5ac] | 0.1102
Ac-pSGRGK(Ac)QGGKARAKAKTR-Peg-Biot [Peptide H2AS1pK5ac] | 0.01536
ARTK(Me3)QTARKSTGGK(Ac)APRK(Ac)QL-K(Biot)-NH2 [H3.1K4me3K14acK18ac] | 0.09432
ARTK(Ac)QTARKSTGGK(Ac)APRK(Ac)QL-K(Biot)-NH2 [H3.1K4acK14acK18ac] | 0.1071

Note down Avg Signal recorded for ARTKQTAR(Me2a)K(Me)STGGKAPRKQL-K(Biot)-NH2 [H3.1R8me2aK9me1]
0.1501

Note down Avg Signal recorded for ARTKQTAR(Me)K(Me3)STGGKAPRKQL-K(Biot)-NH2 [H3.1R8me1K9me3]
0.134

Note down Avg Signal recorded for AR(Me)TK(Me2)QTARKSTGGKAPRKQL-K(Biot)-NH2 [H3.1R2me1K4me2]
0.4867

Note down Avg Signal recorded for Ac-SGRGKGGK(Ac)GLGKGGAK(Ac)RHRKVLR-Peg-Biot [Peptide H4K8acK16ac]
0.2331

Note down Avg Signal recorded for ARTK(Me2)QTARK(Ac)STGGKAPRK(Ac)QL-K(Biot)-NH2 [H3.1K4me2K9acK18ac]
0.5101

Note down Avg Signal recorded for ARTKQTARK(Me)STGGKAPRKQL-K(Biot)-NH2 [Peptide H3.1K9me1]
0.2555

Note down Avg Signal recorded for ACitTK(Me2)QTARKSTGGKAPRKQL-K(Biot)-NH2 [H3.1Cit2K4me2]
0.6324

Note down Avg Signal recorded for AR(Me2a)TK(Me3)QTARKSTGGKAPRKQL-K(Biot)-NH2 [H3.1R2me2aK4me3]
0.09687

* * *

# MEASURED ON: CDYL2 chromo (Homo sapiens)
# Construct: 1-75; made in house; host or cells: E. coli BL21
# Sequence (Q8N8U2 1-75): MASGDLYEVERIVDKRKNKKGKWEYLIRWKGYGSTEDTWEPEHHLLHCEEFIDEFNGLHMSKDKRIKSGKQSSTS
# METHOD DESCRIPTION: Histone peptide microarray, CDYL2 chromo
# Type: binding
# CONDITION PARAMETERS: normalized histone peptide array signal, hits; hybridization with 1 M CDYL2 chromo (so in the source); two subarrays
Recorded measurements of Avg Signal, one per entry
Answer with the value's number alone.

Take a look at these entries with their results.
SUBSTANCE | REPORTED MEASUREMENT
ARTK(Ac)QTARK(Me3)STGGKAPRKQL-K(Biot)-NH2 [H3.1K4acK9me3] | 0.363
ARTKQTAR(Me2s)K(Me2)STGGKAPRKQL-K(Biot)-NH2 [H3.1R8me2sK9me2] | 0.1904
ARTKQTARK(Me2)STGGK(Ac)APRKQL-K(Biot)-NH2 [H3.1K9me2K14ac] | 0.2985
ARTKQTAR(Me2s)K(Me3)STGGKAPRKQL-K(Biot)-NH2 [H3.1R8me2sK9me3] | 0.3941

Now turn to the next substance.
Note down Avg Signal recorded for ARTKQTAR(Me)K(Me2)STGGKAPRKQL-K(Biot)-NH2 [H3.1R8me1K9me2]
0.2455

* * *

Recorded measurements of Avg Signal, one per entry
# Tested on: 53BP1 TTD
# METHOD DESCRIPTION: Histone peptide microarray, 53BP1 TTD
# Assay type: binding
# CONDITION PARAMETERS: 53BP1 TTD hits, average signal per peptide
Answer with the value's number alone.

SUBSTANCE | OUTCOME MEASURE | REPORTED MEASUREMENT
ACitTKQTARKSTGGKAPRKQL-K(Biot)-NH2 [Peptide H3.1Cit2] | Avg Signal | 0.1308
PEPAK(Me3)SAPAPKKGSKKAVTKAQKK-Peg-Biot [Peptide H2BK5me3] | Avg Signal | 0.04404
ARTK(Ac)QTARKSTGGKAPRK(Ac)QL-K(Biot)-NH2 [H3.1K4acK18ac] | Avg Signal | 0.07704
ARTK(Ac)QTARK(Ac)STGGKAPRK(Ac)QL-K(Biot)-NH2 [H3.1K4acK9acK18ac] | Avg Signal | 0.1542

// output Avg Signal; input Ac-SGCitGK(Ac)QGGKARAKAKTR-Peg-Biot [Peptide H2ACit3K5ac] ; system 53BP1 TTD
0.009599

* * *

# System: ABClonal #A2355, anti-H3K4me1
# METHOD DESCRIPTION: Histone peptide microarray, ABclonal A2355;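 note: normalized to the highest peptide average per subarray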
# Type: binding
# CONDITION PARAMETERS: Abclonal A2355 (anti-H3K4me1) hits
Everything with Avg Signal lower than 0.01 is f; everything else, including exactly 0.01, is t.

Quick check: does Ac-APRKQLATKAARK(Me2)pSAPSTGG-Peg-Biot [H3.3K27me2S28p] have Avg Signal greater than or equal to 0.01?
f

Quick check: does ARTK(Me3)QTARKSTGGKAPRK(Ac)QL-K(Biot)-NH2 [H3.1K4me3K18ac] have Avg Signal greater than or equal to 0.01?
f

Quick check: does Biot-Peg-GKKATQApSQEY-OH [Peptide H2A.XS139p] have Avg Signal greater than or equal to 0.01?
t

* * *

# Tested on: 53BP1 TTD
# METHOD DESCRIPTION: Histone peptide microarray, 53BP1 TTD
# Type: binding
# CONDITION PARAMETERS: 53BP1 TTD hits, average signal per peptide
Mark yes for Avg Signal under 0.1, no if at or over.

SUBSTANCE | CAT
ARTKQTAR(Me2a)K(Me2)STGGKAPRKQL-K(Biot)-NH2 [H3.1R8me2aK9me2] | no
ARTK(Me3)QTARK(Me3)STGGKAPRKQL-K(Biot)-NH2 [H3.1K4me3K9me3] | no
ARTK(Me3)QTARK(Ac)pSTGGKAPRKQL-K(Biot)-NH2 [H3.1K4me3K9acS10p] | no

Determine whether this substance shows Avg Signal lower than 0.1 (ties excluded): ARTK(Me2)QTARKSTGGKAPRKQL-K(Biot)-NH2 [Peptide H3.1K4me2]
no

Determine whether this substance shows Avg Signal lower than 0.1 (ties excluded): Ac-SGRGKGGK(Ac)GLGKGGAKRHRKVLR-Peg-Biot [Peptide H4K8ac]
yes

Determine whether this substance shows Avg Signal lower than 0.1 (ties excluded): Ac-SGRGKQGGKARAKAKTR-Peg-Biot [H2A(1-17)]
no

Determine whether this substance shows Avg Signal lower than 0.1 (ties excluded): AR(Me2s)TK(Me3)QTARKSTGGKAPRKQL-K(Biot)-NH2 [H3.1R2me2sK4me3]
no

Determine whether this substance shows Avg Signal lower than 0.1 (ties excluded): AR(Me2a)TK(Me3)QTARKpSTGGKAPRKQL-K(Biot)-NH2 [H3.1R2me2aK4me3S10p]
no

Determine whether this substance shows Avg Signal lower than 0.1 (ties excluded): ARTKQTARK(Ac)STGGK(Ac)APRK(Ac)QL-K(Biot)-NH2 [H3.1K9acK14acK18ac]
no

Determine whether this substance shows Avg Signal lower than 0.1 (ties excluded): ARTK(Me3)QTARK(Ac)STGGK(Ac)APRKQL-K(Biot)-NH2 [H3.1K4me3K9acK14ac]
yes

Determine whether this substance shows Avg Signal lower than 0.1 (ties excluded): AR(Me2s)TK(Me2)QTARKSTGGKAPRKQL-K(Biot)-NH2 [H3.1R2me2sK4me2]
no
